Target: UniProt D0C8Z9
Sequence (D0C8Z9 whole entry): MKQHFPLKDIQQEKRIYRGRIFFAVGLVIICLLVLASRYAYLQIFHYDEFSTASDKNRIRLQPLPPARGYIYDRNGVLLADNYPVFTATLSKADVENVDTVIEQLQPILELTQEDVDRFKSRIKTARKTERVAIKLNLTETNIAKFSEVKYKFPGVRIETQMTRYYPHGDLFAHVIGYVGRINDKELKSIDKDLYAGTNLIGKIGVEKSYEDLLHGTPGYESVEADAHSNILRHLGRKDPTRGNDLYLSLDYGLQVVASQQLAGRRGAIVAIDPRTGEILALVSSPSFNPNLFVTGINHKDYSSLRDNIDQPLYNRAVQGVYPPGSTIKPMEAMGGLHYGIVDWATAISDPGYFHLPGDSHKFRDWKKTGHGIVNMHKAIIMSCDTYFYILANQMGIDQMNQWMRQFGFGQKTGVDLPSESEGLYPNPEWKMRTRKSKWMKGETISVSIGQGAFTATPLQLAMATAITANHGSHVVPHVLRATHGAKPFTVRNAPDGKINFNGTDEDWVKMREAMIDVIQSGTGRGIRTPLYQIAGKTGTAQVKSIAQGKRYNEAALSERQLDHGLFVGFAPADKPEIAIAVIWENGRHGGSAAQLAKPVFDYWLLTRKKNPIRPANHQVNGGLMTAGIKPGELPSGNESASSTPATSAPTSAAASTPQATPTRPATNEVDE
Assay: Bocillin-FL competition binding via gel filtration, A. baumannii PBP2

Molecule	EC50
O=C(O)c1c(F)ccc2c1OB(O)[C@@H](NC(=O)[C@H](NC(=O)N1CCN(C3CCN(C(=O)Nc4cccc(O)c4)CC3)C1=O)c1cc(F)c(O)c(O)c1Cl)C2 [Example 445]	< 10 µM
O=C(O)c1c(F)ccc2c1OB(O)[C@@H](NC(=O)C(NC(=O)N1CCN(CC3CCN(C(=O)Nc4cccc(O)c4)CC3)C(=O)C1=O)c1cc(F)c(O)c(O)c1Cl)C2 (some centres unmarked) [Example 477]	< 10 µM
O=C(O)c1c(F)ccc2c1OB(O)[C@@H](NC(=O)C(NC(=O)N1CCN(C3CCN(C(=O)Nc4ccc(F)c(O)c4F)CC3)C1=O)c1cc(F)c(O)c(O)c1Cl)C2 (some centres unmarked) [Example 452]	< 10 µM
O=C(O)c1c(F)ccc2c1OB(O)[C@@H](NC(=O)[C@H](NC(=O)N1CCN(C3CCN(C(=O)Nc4cccc(O)c4F)CC3)C1=O)c1cc(F)c(O)c(O)c1Cl)C2 (single isomer, unassigned) [Example 446]	< 10 µM
O=C(NCCCS(=O)(=O)N1CCN(C(=O)NC(C(=O)N[C@H]2Cc3ccc(F)c(C(=O)O)c3OB2O)c2cc(F)c(O)c(O)c2Cl)C1=O)Nc1cccc(O)c1 (some centres unmarked) [Example 277]	< 10 µM
O=C(NCCS(=O)(=O)N1CCN(C(=O)NC(C(=O)N[C@H]2Cc3ccc(F)c(C(=O)O)c3OB2O)c2cc(F)c(O)c(O)c2Cl)C1=O)Nc1cccc(O)c1 (some centres unmarked) [Example 266]	10 to 50 µM
O=C(O)c1c(F)ccc2c1OB(O)[C@@H](NC(=O)C(NC(=O)N1CCN(C3CCN(C(=O)c4c(F)ccc(O)c4F)CC3)C(=O)C1=O)c1cc(F)c(O)c(O)c1Cl)C2 (some centres unmarked) [Example 308]	< 10 µM
O=C(O)c1cccc2c1OB(O)[C@@H](NC(=O)C(NC(=O)N1CCN(Cc3cc(F)c(O)c(O)c3Cl)C(=O)C1=O)c1ccc(P(=O)(O)O)cc1)C2 (some centres unmarked) [Example 164]	< 10 µM
O=C(O)c1c(F)ccc2c1OB(O)[C@@H](NC(=O)[C@H](NC(=O)N1CCN(C3CCN(C(=O)c4ccncc4)CC3)C1=O)c1cc(F)c(O)c(O)c1Cl)C2 [Example 461]	10 to 50 µM
O=C(O)c1c(F)ccc2c1OB(O)[C@@H](NC(=O)[C@H](NC(=O)N1CCN(C3CCN(C(=O)Nc4ccc(O)c(O)c4Cl)CC3)C1=O)c1ccc(P(=O)(O)O)cc1)C2 (single isomer, unassigned) [Example 497]	< 10 µM
O=C(NCCCN1CCN(C(=O)NC(C(=O)N[C@H]2Cc3ccc(F)c(C(=O)O)c3OB2O)c2cc(F)c(O)c(O)c2Cl)C1=O)c1ccc(O)cc1 (some centres unmarked) [Example 280]	10 to 50 µM
O=C(O)c1c(F)ccc2c1OB(O)[C@@H](NC(=O)C(NC(=O)N1CCN(C3CCN(S(=O)(=O)c4ccc(O)cc4)CC3)C(=O)C1=O)c1cc(F)c(O)c(O)c1Cl)C2 (some centres unmarked) [Example 429]	< 10 µM
O=C(O)c1c(F)ccc2c1OB(O)[C@@H](NC(=O)C(NC(=O)N1CCN(C3CCN(Cc4ccc(O)cc4)CC3)C1=O)c1cc(F)c(O)c(O)c1Cl)C2 (single isomer, unassigned) [Example 609]	10 to 50 µM
O=C(NCCCN1CCN(C(=O)NC(C(=O)N[C@H]2Cc3ccc(F)c(C(=O)O)c3OB2O)c2cc(F)c(O)c(O)c2Cl)C(=O)C1=O)c1ccc(O)c(F)c1F (some centres unmarked) [Example 306]	< 10 µM
O=C(O)c1c(F)ccc2c1OB(O)[C@@H](NC(=O)[C@H](NC(=O)N1CCN(C3CCN(C(=O)Nc4cc(O)cc(O)c4)CC3)C1=O)c1cc(F)c(O)c(O)c1Cl)C2 [Example 456]	< 10 µM
O=C(NCCS(=O)(=O)N1CCN(C(=O)NC(C(=O)N[C@H]2Cc3ccc(F)c(C(=O)O)c3OB2O)c2cc(F)c(O)c(O)c2Cl)C1=O)Nc1ccc(O)cc1 (some centres unmarked) [Example 289]	10 to 50 µM
O=C(O)c1c(F)ccc2c1OB(O)[C@@H](NC(=O)C(NC(=O)N1CCN(S(=O)(=O)c3ccc(O)c(O)c3Cl)C1=O)c1ccc(P(=O)(O)O)cc1)C2 (some centres unmarked) [Example 505]	< 10 µM
O=C(O)c1c(F)ccc2c1OB(O)[C@@H](NC(=O)[C@H](NC(=O)N1CCN(C3CCN(C(=O)c4cc(F)c(F)c(O)c4F)CC3)C1=O)c1cc(F)c(O)c(O)c1Cl)C2 (single isomer, unassigned) [Example 441]	< 10 µM
O=C(O)c1c(F)ccc2c1OB(O)[C@@H](NC(=O)[C@H](NC(=O)N1CCN(C3CCN(C(=O)Nc4cccc(O)c4Cl)CC3)C1=O)c1cc(F)c(O)c(O)c1Cl)C2 [Example 447]	< 10 µM
O=C(O)c1c(F)ccc2c1OB(O)[C@@H](NC(=O)[C@H](NC(=O)N1CCN(Cc3ccc(O)c(O)c3Cl)C(=O)C1=O)c1ccc(P(=O)(O)O)cc1)C2 (single isomer, unassigned) [Example 160]	< 10 µM

====

Tested on: N. gonorrhoeae WHO Z
Assay: Liquid broth MIC in Fastidious broth
Details: Neisseria gonorrhoeae, read-out: Minimum Inhibitory Concentration, WHO Z
The following compounds are shown together with reported MIC values.

Compound	MIC
O=C(NCCCS(=O)(=O)N1CCN(C(=O)NC(C(=O)N[C@H]2Cc3ccc(F)c(C(=O)O)c3OB2O)c2cc(F)c(O)c(O)c2Cl)C1=O)c1ccncc1 (stereo partly shown)	4 to 8 µg/mL
O=C(NCCCN1CCN(C(=O)N[C@@H](C(=O)N[C@H]2Cc3ccc(F)c(C(=O)O)c3OB2O)c2cc(F)c(O)c(O)c2Cl)C1=O)c1ccccc1	16 to 32 µg/mL
O=C(NCCCS(=O)(=O)N1CCN(C(=O)NC(C(=O)N[C@H]2Cc3ccc(F)c(C(=O)O)c3OB2O)c2cc(F)c(O)c(O)c2Cl)C1=O)Nc1ccc(O)cc1 (stereo partly shown)	4 to 8 µg/mL
O=C(NCCS(=O)(=O)N1CCN(C(=O)NC(C(=O)N[C@H]2Cc3ccc(F)c(C(=O)O)c3OB2O)c2cc(F)c(O)c(O)c2Cl)C1=O)c1ccccc1 (stereo partly shown)	16 to 32 µg/mL
O=C(NCCCN1CCN(C(=O)NC(C(=O)N[C@H]2Cc3ccc(F)c(C(=O)O)c3OB2O)c2cc(F)c(O)c(O)c2Cl)C(=O)C1=O)c1ccc(O)c(F)c1F (stereo partly shown)	> 64 µg/mL
O=C(NCCCN1CCN(C(=O)NC(C(=O)N[C@H]2Cc3ccc(F)c(C(=O)O)c3OB2O)c2cc(F)c(O)c(O)c2Cl)C1=O)c1nccs1 (stereo partly shown)	16 to 32 µg/mL
O=C(O)c1c(F)ccc2c1OB(O)[C@@H](NC(=O)C(NC(=O)N1CCN(Cc3ccc(O)c(O)c3Cl)C(=O)C1=O)c1cc(F)c(O)c(O)c1Cl)C2 (stereo partly shown)	> 64 µg/mL
O=C(NCCCS(=O)(=O)N1CCN(C(=O)NC(C(=O)N[C@H]2Cc3ccc(F)c(C(=O)O)c3OB2O)c2cc(F)c(O)c(O)c2Cl)C1=O)c1nccs1 (stereo partly shown)	16 to 32 µg/mL
O=C(NCCS(=O)(=O)N1CCN(C(=O)NC(C(=O)N[C@H]2Cc3ccc(F)c(C(=O)O)c3OB2O)c2cc(F)c(O)c(O)c2Cl)C1=O)Nc1ccc(O)cc1 (stereo partly shown)	4 to 8 µg/mL
O=C(NCCCN1CCN(C(=O)N[C@H](C(=O)N[C@H]2Cc3ccc(F)c(C(=O)O)c3OB2O)c2cc(F)c(O)c(O)c2Cl)C1=O)c1ccccc1	> 64 µg/mL

====

Tested on: A. baumannii CDC-0045
Assay: microbe, parasite or virus in culture
Format: cell-based
Conditions: Acinetobacter baumannii, CDC0045, read-out: MIC, A. baumannii CDC-0045
The following molecules are shown together with reported MIC values.

Molecule	MIC
O=C(NCCCN1CCN(C(=O)NC(C(=O)N[C@H]2Cc3ccc(F)c(C(=O)O)c3OB2O)c2cc(F)c(O)c(O)c2Cl)C(=O)C1=O)c1cc(O)cc(O)c1 (some centres unmarked)	< 1 µg/mL
O=C(NCCCN1CCN(C(=O)NC(C(=O)N[C@H]2Cc3ccc(F)c(C(=O)O)c3OB2O)c2cc(F)c(O)c(O)c2Cl)C(=O)C1=O)c1ccc(F)c(O)c1F (some centres unmarked)	2 to 4 µg/mL
O=C(O)c1c(F)ccc2c1OB(O)[C@@H](NC(=O)C(NC(=O)N1CCN(S(=O)(=O)CCNC(=O)[C@@H]3CCCN3)C1=O)c1cc(F)c(O)c(O)c1Cl)C2 (some centres unmarked)	< 1 µg/mL
O=C(O)c1c(F)ccc2c1OB(O)[C@@H](NC(=O)C(NC(=O)N1CCN(S(=O)(=O)CCCNC(=O)[C@@H]3CCCN3)C1=O)c1cc(F)c(O)c(O)c1Cl)C2 (some centres unmarked)	< 1 µg/mL
O=C(NCCCN1CCN(C(=O)NC(C(=O)N[C@H]2Cc3ccc(F)c(C(=O)O)c3OB2O)c2cc(F)c(O)c(O)c2Cl)C(=O)C1=O)c1c(F)cncc1Cl (some centres unmarked)	< 1 µg/mL
